Just for reference, ChEMBL document CHEMBL5143689 is where these values come from.

system: CCRF-CEM; assay: Antiproliferative activity against human CCRF-CEM cells assessed as inhibition of cell viability measured after 48 hrs by MTT assay; format: functional, cell-based
API: label(entry) gives Fulfilled if the entry's IC50 is strictly smaller than 6 µM; on equality or larger values it gives Not fulfilled.

Ask | Below 6 µM on IC50? Entry COc1ccc2[nH]cc(CCNCCC(=O)Nc3ccccc3)c2c1
Reply | Not fulfilled

Ask | Below 6 µM on IC50? Entry COc1ccc2[nH]cc(CCNCCC(=O)Nc3ccc(C)cc3[N+](=O)[O-])c2c1
Reply | Not fulfilled

Ask | Below 6 µM on IC50? Entry CC(CNCCc1c[nH]c2ccccc12)C(=O)Nc1ccccc1N (racemic)
Reply | Fulfilled

Ask | Below 6 µM on IC50? Entry COc1ccc2[nH]cc(CCNCCC(=O)Nc3ccccc3N)c2c1
Reply | Fulfilled

Ask | Below 6 µM on IC50? Entry COc1ccc2[nH]cc(CCNCC(C)C(=O)Nc3ccccc3)c2c1 (racemic)
Reply | Not fulfilled

Ask | Below 6 µM on IC50? Entry CC(CNCCc1c[nH]c2ccccc12)C(=O)Nc1ccccc1 (racemic)
Reply | Fulfilled

Ask | Below 6 µM on IC50? Entry Cc1ccc(NC(=O)CCNCCc2c[nH]c3ccccc23)c(N)c1
Reply | Not fulfilled

Ask | Below 6 µM on IC50? Entry COc1ccc2[nH]cc(CCNCCC(=O)Nc3ccc(C)cc3N)c2c1
Reply | Not fulfilled

Ask | Below 6 µM on IC50? Entry COc1ccc2[nH]cc(CCNCC(C)C(=O)Nc3ccc(C)cc3N)c2c1 (racemic)
Reply | Not fulfilled

Ask | Below 6 µM on IC50? Entry O=C(CCNCCc1c[nH]c2ccc(Cl)cc12)Nc1ccccc1
Reply | Fulfilled

Ask | Below 6 µM on IC50? Entry Nc1cc(F)ccc1NC(=O)CCNCCc1c[nH]c2ccccc12
Reply | Not fulfilled

----------
target: Eukaryotic elongation factor 2 kinase (Homo sapiens, UniProt O00418)
Sequence (O00418 whole entry): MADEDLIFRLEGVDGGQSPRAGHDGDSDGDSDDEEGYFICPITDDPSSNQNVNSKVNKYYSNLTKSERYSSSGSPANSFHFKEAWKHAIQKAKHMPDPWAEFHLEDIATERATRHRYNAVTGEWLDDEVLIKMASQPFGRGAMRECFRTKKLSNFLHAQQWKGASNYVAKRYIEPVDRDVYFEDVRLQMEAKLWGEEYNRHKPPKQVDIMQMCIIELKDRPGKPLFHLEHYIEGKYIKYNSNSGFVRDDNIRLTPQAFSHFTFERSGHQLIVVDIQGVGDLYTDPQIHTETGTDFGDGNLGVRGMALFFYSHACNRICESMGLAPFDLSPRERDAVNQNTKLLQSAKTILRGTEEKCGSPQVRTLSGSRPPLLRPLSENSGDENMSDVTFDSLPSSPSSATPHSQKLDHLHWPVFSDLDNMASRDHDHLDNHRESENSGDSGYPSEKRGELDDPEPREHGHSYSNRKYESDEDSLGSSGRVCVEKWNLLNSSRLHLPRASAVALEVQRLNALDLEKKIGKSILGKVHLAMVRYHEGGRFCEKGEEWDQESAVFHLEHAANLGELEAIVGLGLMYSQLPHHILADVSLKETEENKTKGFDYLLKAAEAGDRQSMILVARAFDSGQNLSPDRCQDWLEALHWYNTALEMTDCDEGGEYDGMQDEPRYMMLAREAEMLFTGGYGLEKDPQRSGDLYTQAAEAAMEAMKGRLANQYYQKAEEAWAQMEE
Please respond with reported IC50 for every item in the list.
Write it as a number; the unit nM goes unstated.

Data point: O=S(=O)(c1ccc(Cl)cc1)C1(S(=O)(=O)c2ccc(Cl)cc2)CC1 ; IC50 = 69

Data point: Cc1ccc(C2=NC(C)(O)CC(C(C)C)[Se]2)cc1 (configuration not stated) ; IC50 = 1500
